Provenance of the data: PubChem BioAssay (NCATS)

- Method: qHTS assay for small molecule antagonists of retinoid X receptor alpha signaling (AID 588546);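 note: cells stimulated with 9-cis-retinoic acid as agonist; % is set by controls: 0 for no effect and ±100 for the full control effect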
- Condition Parameters: HEK293T RXRa-UAS-bla, beta-lactamase ratio, antagonist mode; measured here: W530 green channel, cytotoxicity proxy
Results filed as inconclusive are left out.
Measure: max response (%)
Please give a number only; it is taken to be in %.

Inquiry: Query: max response; subject: Cc1ccc(S(=O)(=O)N=C=O)cc1
Reply text: -8.47

Inquiry: Query: max response; subject: COC(=O)c1ccccc1C(=O)O
Reply text: -4.92

Inquiry: Query: max response; subject: O=C(O)CCCCCCCCCCC(=O)O
Reply text: 2.61

Inquiry: Query: max response; subject: O=C(Cl)c1cc(Cl)cc(Cl)c1
Reply text: 3.33

Inquiry: Query: max response; subject: CCCCCCCC[Si](Cl)(Cl)Cl
Reply text: -3.5

Inquiry: Query: max response; subject: CCCCC(CC)C(=O)OCCOCCOCCOC(=O)C(CC)CCCC (configuration not stated)
Reply text: -5.42

Inquiry: Query: max response; subject: C=C[Si](OCCOC)(OCCOC)OCCOC
Reply text: -8.04
